Origin of values: patent US20110112149A1

Tested on: MCF-7 (Breast Cancer)
Assay: SRB cytotoxicity assay, MCF-7
Format: cell-based
Details: Homo sapiens, MCF7, 72 h, cells cultured 3 days with compound, read-out: Activity against cancer cell lines (IC50), MCF-7 (Breast Cancer)
PARAMETER: IC50
Write the numeric value and follow it with the unit.

# annotated cases, reported IC50 shown
C/C(=C\c1csc(C)n1)C1OC(=O)CC(O)C(C)(C)C(=O)C(C)C(O)C(C)CCCC2(C)OC12 (stereo not drawn)
0.2 nM
C/C(=C\c1csc(C)n1)C(N)C1OC(=O)CC(O)C(C)(C)C(=O)C(C)C(O)C(C)CCCC2(C)OC12 (stereo not drawn)
1 nM

Below: the item to evaluate.
In plain terms, Cc1nc2cc(C3OC(=O)CC(O)C(C)(C)C(=O)C(C)C(O)C(C)CCCC4(C)OC34)ccc2s1 (stereo not drawn) has a documented IC50 of 0.5 nM

---

Test system: SF-268 (Glioma)
Assay: SRB cytotoxicity assay, SF-268
Type: cell-based
Settings: cells cultured 3 days with compound, read-out: Activity against cancer cell lines (IC50), SF-268 (Glioma)
Listing of recorded pIC50 by entry.
Keep it numeric: pIC50 is minus log10 of the concentration in mol/L.

In plain terms, C/C(=C\c1csc(C)n1)[C@@H]1C[C@@H]2O[C@]2(C)CCC[C@H](C)[C@H](O)[C@@H](C)C(=O)C(C)(C)[C@@H](O)CC(=O)O1 [Epo B, Epothilone B, reference compound] has a documented pIC50 of 9.10

In plain terms, C/C1=C/C[C@@H](/C(C)=C/c2csc(C)n2)OC(=O)C[C@H](O)C(C)(C)C(=O)[C@H](C)[C@@H](O)[C@@H](C)CCC1 [Epo D, Epothilone D, reference compound] has a documented pIC50 of 7.74
